# System: BT474
# method-summary: Cell viability assay (Cell Titer-Glo)
# Type: cell-based
# experimental-conditions: Homo sapiens, BT-474, 72 h, read-out: BT474 IC50, Table VIII, drug compounds
measured-endpoint: IC50

structure=COc1cc2cc(C(=O)N3C[C@@H](CCl)c4c3cc(OC(=O)N3CCN(CCN)CC3)c3ccccc43)[nH]c2c(OC)c1OC measured_endpoint=IC50 experimental_result="100 nM"

---

# System: HCT15
# method-summary: Cell viability assay (Cell Titer-Glo)
# Type: cell-based
# experimental-conditions: Homo sapiens, HCT-15, 72 h, read-out: HCT15 IC50, Table VIII, drug compounds
measured-endpoint: IC50 (nM)

structure=COc1cc2cc(C(=O)N3C[C@@H](CCl)c4c3cc(OC(=O)N3CCN(CCN)CC3)c3ccccc43)[nH]c2c(OC)c1OC readout_unit=nM experimental_result=68

---

# Test system: BT474
# method-summary: Cell viability assay (Cell Titer-Glo)
# Type: cell-based
# experimental-conditions: Homo sapiens, BT-474, 72 h, Table VIII, drug compounds, read-out: BT474 IC50
measured-endpoint: IC50

molecule="CCC(C)C(C(CC(=O)N1CCCC1C(OC)C(C)C(=O)NC(Cc1ccccc1)C(=O)NO)OC)N(C)C(=O)C(NC(=O)C(C(C)C)N(C)C)C(C)C (stereo not drawn) [drawing 765 (R40 = -OH)]" experimental_result="20.6 nM"
molecule="CCC(C)C(C(CC(=O)N1CCCC1C(OC)C(C)C(=O)NC(Cc1ccccc1)C(=O)NCC(C)O)OC)N(C)C(=O)C(NC(=O)C(C(C)C)N(C)C)C(C)C (stereo not drawn) [drawing 771]" experimental_result="1.27 nM"
molecule="CCCO[C@H](C[C@H](C(C)C)N(CCC)C(=O)[C@@H](NC(=O)[C@H]1CCCCN1C)[C@@H](C)CC)c1nc(C(=O)N[C@@H](Cc2ccc(O)cc2)C[C@H](C)C(=O)O)cs1 [drawing 786 (R43 = H, R78 = -OH)]" experimental_result="0.04 nM"

Hello, the source for this data is patent EP2928504B1, in case you need it.
